Source: ChEMBL document CHEMBL1148224

assay-target: Potassium voltage-gated channel subfamily KQT member 2 (Mus musculus)
Sequence (Q9Z351 whole entry): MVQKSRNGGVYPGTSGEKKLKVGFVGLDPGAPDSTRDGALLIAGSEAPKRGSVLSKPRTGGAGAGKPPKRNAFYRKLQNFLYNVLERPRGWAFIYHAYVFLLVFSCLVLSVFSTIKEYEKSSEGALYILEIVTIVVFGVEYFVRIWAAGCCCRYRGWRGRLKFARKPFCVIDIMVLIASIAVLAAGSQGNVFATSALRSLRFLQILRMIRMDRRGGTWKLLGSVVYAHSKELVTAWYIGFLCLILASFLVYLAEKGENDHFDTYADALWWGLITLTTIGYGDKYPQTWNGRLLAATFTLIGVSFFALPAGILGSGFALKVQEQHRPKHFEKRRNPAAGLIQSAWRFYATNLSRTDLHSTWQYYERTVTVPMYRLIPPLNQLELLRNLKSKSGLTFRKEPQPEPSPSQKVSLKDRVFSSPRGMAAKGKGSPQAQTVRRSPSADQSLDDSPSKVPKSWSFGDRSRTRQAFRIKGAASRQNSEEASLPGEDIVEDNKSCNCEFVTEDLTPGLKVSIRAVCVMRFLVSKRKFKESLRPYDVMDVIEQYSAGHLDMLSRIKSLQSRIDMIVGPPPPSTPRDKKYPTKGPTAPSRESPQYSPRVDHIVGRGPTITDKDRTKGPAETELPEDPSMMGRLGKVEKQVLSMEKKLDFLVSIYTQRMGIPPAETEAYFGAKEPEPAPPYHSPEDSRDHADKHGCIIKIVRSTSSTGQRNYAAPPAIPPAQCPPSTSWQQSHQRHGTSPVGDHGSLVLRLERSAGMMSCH
protocol: Increased outward current at -40 mV mediated by mouse KCNQ2 channel expressed in Xenopus laevis oocytes
metric: EC50 (nM)
Please give a number only; it is taken to be in nM.

Consider the compound shown here: O=c1[nH]c2ccc(C(F)(F)F)cc2c(Cc2cc(Cl)ccc2O)c1NS(=O)(=O)C(F)(F)F What is its recorded EC50?
663

====

assay-target: Potassium voltage-gated channel subfamily KQT member 2 (Mus musculus) (UniProt Q9Z351)
Sequence (Q9Z351 whole entry): as above
protocol: Increased outward current at -40 mV mediated by mouse KCNQ2 channel expressed in Xenopus laevis oocytes at 20 uM
Format: functional, cell-based
condition-label: Oocyte
metric: Increase (%)
Output spec: scalar in %, unitless text.

Which Increase value is on record for Nc1c(O)nc2ccc(C(F)(F)F)cc2c1Cc1cc(Cl)ccc1O ?
122

Need Increase, item O=S(=O)(Nc1c(O)nc2ccccc2c1Cc1ccccc1)C(F)(F)F
131

Report Increase for CCOC(=O)Nc1ccc(NCc2ccc(F)cc2)cc1N please.
269

// Increase lookup, key: O=S(=O)(Nc1c(O)nc2cc(C(F)(F)F)ccc2c1Cc1ccccc1)C(F)(F)F
223

If you can, please state the reported Increase value of O=S(=O)(Nc1c(O)nc2cc(C(F)(F)F)ccc2c1Cc1ccccc1O)C(F)(F)F .
277

GET /values?readout=Increase&item= O=S(=O)(Nc1c(O)nc2cc(C(F)(F)F)ccc2c1Cc1cc(Cl)ccc1O)C(F)(F)F
271

Request the reported Increase associated with O=S(=O)(Nc1c(O)nc2ccc(C(F)(F)F)cc2c1Cc1cc(Cl)ccc1O)C(F)(F)F
284

I am curious: what Increase value has been reported for COc1ccc(Cl)cc1Cc1c(NS(=O)(=O)C(F)(F)F)c(O)nc2ccc(C(F)(F)F)cc12 ?
231

Bench note: what Increase did COc1ccccc1Cc1c(NS(=O)(=O)C(F)(F)F)c(O)nc2cc(C(F)(F)F)ccc12 show?
254

Name the reported Increase value associated with the compound Nc1c(O)nc2ccccc2c1Cc1ccccc1
103

I'd like to know its Increase. The compound in question is O=S(=O)(Nc1c(O)nc2cc(C(F)(F)F)ccc2c1Cc1cccc(Cl)c1)C(F)(F)F
220
